Just for reference, the supplement of paper PMC10065799 is where these values come from.

# System: c-Abl (mouse);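 further: 11-residue human phosphosite peptides and single-mutation variants displayed on the E. coli surface, counted by deep sequencing, each peptide's frequency after selection divided by its frequency in the unselected input library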;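 further: frequency after pTyr selection over input frequency; kinase dosed for 20-30% of maximal phosphorylation in three min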
# protocol: phosphorylation enrichment, bacterial display (enrichment ratio); higher = better substrate or ligand; peptides without Tyr show the background
Attribute: phosphorylation enrichment
propertyName: phosphorylation enrichment

1) LIDGYYRLTED [JAK2_Y373_A377E]
1.07
2) VLNDAYENLTR [SYNE2_Y3255]
0.605
3) NKHTNYTMEHI [ACTN1_Y708]
0.352
4) LRAGVYREKDQ [DNM2_Y626_P627R]
0.514
5) HAVVDYMRRQK [ATM_Y1915_L1910H]
0.595
6) RIGRKCKKVRF [F8_Y442_Y442C]
0.524
7) QNTGGYYDLYG [PTPN11_Y62_D61G]
1.01
8) TVQIMYGCDVG [HLA-A_Y123_I119V]
0.737
9) SLGSPYGQPPR [PDLIM4_Y137]
0.486
10) YLAAIYPTVGQ [NF1_Y2508_T2507I]
0.597
11) SIFKDYFRFNF [PLA2G2D_Y85_YF]
0.821
12) DMLFQYLKQIE [RPAP3_Y569_YF]
0.577
13) GLAKEYIDPET [CSNK1G2_Y195]
0.592
14) LPEENYQVLCF [ARHGAP1_Y365_R369C]
3.14
15) PIDLFYLMDLS [ITGB2_Y131_YF]
0.98
16) QADVTYVNTQL [MERTK_Y872_I871T]
1.11
17) GDDLSYGDVPP [IRS1_Y151_E147D]
0.751
18) TRLAQYDSNSK [BMX_Y216_S212R]
0.776
19) SLFNGYVFSGM [NEIL3_Y71_V76M_YF]
0.697
20) DEEEEYEFMNR [ERBB3_Y1197_D1194E_YF]
1.1
21) FAKTQYPDIYA [CRX_Y63_V66I]
0.526
22) RGRSTYFWPRP [GAGE12J_Y9_YF]
1.17
23) GPIIRYDLGGA [CYP11B1_Y81_F79I]
0.518
24) LEITWYPFDVE [RIPOR2_Y316]
1.25
25) GGPAEYLRRAS [PKLR_Y38_G37E]
0.675
26) AGDGRYEVLFL [SEMA3F_Y478_A474G]
0.758
27) FTGVEYSSCDT [EPHA3_Y937]
0.755
28) VRFTEYETQVK [TARDBP_Y155]
0.629
29) VEDDMYRKTCT [XPA_Y257_L252V]
0.932
30) GRFCGYKSKHG [EPHA3_Y570]
0.587
31) EALDFYGEVRI [PTEN_Y155_T160I]
1.11
32) PQIVKYRPDCI [LDHB_Y128_S129R]
0.069
33) STKELYEKYMI
0.518
34) FSCLPCGRLAF [SLC52A2_Y305_Y305C_YF]
0.55
35) CTTIHQNFMCN [TP53_Y234_Y234Q_YF]
0.497
36) EFEGLYQEGGG [TMEM159_Y159]
0.551
37) YYSSEYHYVGG [CTSC_Y345]
12.8
38) QRPGPYDRPGA [HNRNPH2_Y210]
0.496
39) TGNGFYFRVFS [MYBPC3_Y1136_I1131T_YF]
0.929
40) LQRCKYSHMEP [TEX45_Y434]
1.16
41) VGSIKYLKREW [KCNMA1_Y885_E884K]
0.482
42) CVAARYMDMKG [WFIKKN2_Y93_V96M]
0.542
43) YLEKYYKFGSR [NNMT_Y25]
0.59
44) DNLNNYVFQGQ [GRIN2A_Y978]
0.815
45) LPKEQYLCTKE [AFG3L2_Y614_Y616C]
0.723
46) SRGRQYQELPR [KCNH2_Y1009]
0.463
47) FSCLPYGRLAY [SLC52A2_Y305]
0.595
48) YKRAVYCIIGR [NUP93_Y391]
0.563
49) KLMTEYKRRKQ [ARFGEF3_Y2029_K2031R]
0.503
50) LDPDSYNVFEN [FOXC1_Y159_M161V]
1.93
51) VNYGAYINDFK [GLB1_Y488]
0.515
52) PLDGEYFTHQI [TP53_Y327_L330H]
1.5
53) QEALEYFMKQT [PIK3CA_Y1038_M1043T]
1.85
54) PLDGESFTLQI [TP53_Y327_Y327S]
1.23
55) SLGKGYYDGGC [MC4R_Y35_S36Y]
0.841
56) NHYKIHNLCAE [PTEN_Y68_Y68H]
0.696
57) SVKVYYKKCWS [EPHA7_Y202]
1.2
